Cited source: ChEMBL document CHEMBL1142829

Ratio values, listed per item
# Measurement description: Ratio between antioxidant activities determined employing ABTS and DPPH methods

[
  {
    "Molecule smiles": "COc1cc(O)cc2oc(-c3ccccc3)c(OC(C)=O)c(=O)c12",
    "Ratio": 160
  },
  {
    "Molecule smiles": "COc1ccc(-c2cc(=O)c3c(OC)cc(O)cc3o2)cc1O",
    "Ratio": 126
  },
  {
    "Molecule smiles": "COc1cc(OC)c2c(=O)c(OC)c(-c3ccc(O)c(OC)c3)oc2c1",
    "Ratio": 125
  },
  {
    "Molecule smiles": "COc1cc(O)cc2oc(-c3ccc(O)cc3)cc(=O)c12",
    "Ratio": 143
  },
  {
    "Molecule smiles": "COc1c(-c2ccccc2)oc2cc(O)cc(OC)c2c1=O",
    "Ratio": 6.8
  },
  {
    "Molecule smiles": "COc1cc(O)c2c(=O)cc(-c3ccc(O)c(O)c3)oc2c1",
    "Ratio": 3.4
  },
  {
    "Molecule smiles": "COc1cc(-c2oc3cc(O)cc(OC)c3c(=O)c2OC)ccc1O",
    "Ratio": 6.6
  },
  {
    "Molecule smiles": "COc1cc(O)cc2oc(-c3ccccc3)cc(=O)c12",
    "Ratio": 170
  }
]
